Would you mind telling me the reported kon of each entry?
Molecular target: T1, human CD123 (human, UniProt P26951 19-305, limits assumed)
T1 construct: Construct on the chip is not described; also called CD123 chip
T1 sequence (looked up): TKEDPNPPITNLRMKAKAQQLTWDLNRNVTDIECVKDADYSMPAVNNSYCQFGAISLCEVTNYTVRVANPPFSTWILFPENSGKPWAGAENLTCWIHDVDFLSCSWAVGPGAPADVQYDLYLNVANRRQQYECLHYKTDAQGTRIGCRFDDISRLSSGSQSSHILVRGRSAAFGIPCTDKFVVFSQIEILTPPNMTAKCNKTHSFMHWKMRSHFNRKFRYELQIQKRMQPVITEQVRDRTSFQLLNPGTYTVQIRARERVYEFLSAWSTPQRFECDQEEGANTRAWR
Experiment: Biacore, Fab-His on CD123 (Example 3; the sheet names no assay)
Express it in M⁻¹ s⁻¹; write the number only.

Q. I would be grateful if you could share the reported kon for 13965 7G3_H1.107_L1.57_Fab_His (Fab, V domains shown, also called XENP13965) VH: QVQLQQSGAEVKKPGASVKVSCKASGYTFTDYYMKWVRQAPGQSLEWMGDIIPSNGATFYNQKFKGKATLTVDRSTSTAYMELSSLRSEDTAVYYCARSHLLRASWFAYWGQGTLVTVSS VL: DFVMTQSPDSLAVSLGERATINCKSSQSLLNTGNQKNYLTWYQQKPGQPPKLLIYWASTRESGVPDRFTGSGSGTDFTLTISSLQAEDVAVYYCQNDYSYPYTFGGGTKLEIKR .
A. 612000

Q. What about 13963 7G3_H1.109_L1_Fab_His (Fab, V domains shown, also called XENP13963) VH: QVQLQQSGAEVKKPGASVKVSCKASGYTFTDYYMKWVKQSHGKSLEWMGDIIPSNGATFYNQKFKGKATLTVDRSTSTAYMELSSLRSEDTAVYYCARSHLLRASWFAYWGQGTLVTVSS VL: DFVMTQSPDSLAVSLGERATINCKSSQSLLNSGNQKNYLTWYQQKPGQPPKLLIYWASTRESGVPDRFTGSGSGTDFTLTISSLQAEDVAVYYCQNDYSYPYTFGGGTKLEIKR ?
A. 745000

Q. What about 13961 7G3_H1.107_L1_Fab_His (Fab, V domains shown, also called XENP13961) VH: QVQLQQSGAEVKKPGASVKVSCKASGYTFTDYYMKWVRQAPGQSLEWMGDIIPSNGATFYNQKFKGKATLTVDRSTSTAYMELSSLRSEDTAVYYCARSHLLRASWFAYWGQGTLVTVSS VL: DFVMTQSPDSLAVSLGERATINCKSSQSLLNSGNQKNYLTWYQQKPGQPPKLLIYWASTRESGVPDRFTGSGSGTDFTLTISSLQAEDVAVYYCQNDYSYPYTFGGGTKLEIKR ?
A. 600000
